# measurementTarget: Torsin-1A (Homo sapiens)
# protocolNotes: torsin A mutant lysate binding on microarrays – cell lysate, small-molecule microarray, COS7 lysate, 635/667 nm fluorescence, primary screen (AID 1150);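 note: score pools 667 nm emission and signal to noise measuring lysate protein binding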
# conditionNotes: COS7 hTOR1A mutant lysate, 635 nm fluorescence, higher = more signal

- chemicalString: "C[N+](C)(C)CCCC[C@@H]1NC(=O)[C@@H]2C[C@H](C(=O)O)[C@H](c3cccc(OCCO)c3)N2C1=O"
  composite z-score: 0.171
- chemicalString: "CN(C)CCCN1C(=O)[C@@]2(Cc3ccccc31)c1ccccc1C(=O)N(Cc1ccccc1)[C@H]2c1ccc(CO)cc1"
  composite z-score: -0.105
- chemicalString: "C=CCOC(=O)[C@@H]1[C@H]2C(=O)O[C@H](c3ccccc3)[C@H](c3ccccc3)N2[C@H](c2ccc(OCCOC(=O)[C@@H]3C[C@@H]4C(=O)N[C@@H](CCCCNC(C)=O)C(=O)N4[C@@H]3c3ccc(O)cc3)cc2)[C@@]12C(=O)Nc1ccc(I)cc12"
  composite z-score: 0.27

###

# protocolNotes: optical density change of DRC41 E. coli – strain DRC41, OD650, 24 h, E. coli filamentation project, primary screen (AID 1093);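 note: MC1000 strain lacking acrAB efflux and sulA so SOS filamentation is blocked; test concentration not given here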
# conditionNotes: E. coli DRC41 growth, higher = more signal, called active from +8 up or from −8 down
measuredParameter: z-score

- compound: "COC(=O)[C@@]1(Cc2ccccc2)[C@H]2c3cc(C(=O)N(C)C)n(Cc4ccc(O)c(OC)c4)c3C[C@H]2CN1C(=O)c1ccccc1"
  readoutNumber: 0.195
- compound: "CN1C(=O)C2C=CC(C(O)COCc3ccccc3)N(Nc3ccccc3)C2C1=O (centres undefined)"
  readoutNumber: -0.309
- compound: "C=C(CCCC)/C(=C/C[C@@H](OC(=O)c1ccncc1)c1ccccc1OCCO)c1cc(C(=O)OC)ccc1OC"
  readoutNumber: 0.478
- compound: "CC1C=C(CCCO)C=C(C(=O)OCCS(C)(=O)=O)C(C(=O)OCCS(C)(=O)=O)=CN1Cc1cccc(OC(F)(F)F)c1 (centres undefined)"
  readoutNumber: -0.436

###

# protocolNotes: growth effects on S. cerevisiae YJM789 – YJM789 clinical isolate, OD600, 24 h, basal, primary screen (AID 1089);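 note: growth of clinical yeast isolate S. cerevisiae YJM 789 seeded 1000 cells per well; test concentration not given here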
# conditionNotes: higher = more signal, called active from +8 up or from −8 down
The source made the active and inactive calls.

- compound: "COCCCNC(=O)[C@]1(CCS(=O)(=O)c2ccccc2)N=C(c2ccc(OCCCO)cc2)O[C@@H]1c1ccccc1"
  z-score: "-0.575 (inactive)"
- compound: "C=CCC(OC(C)=O)[C@@H]1[C@@H](N(Cc2cc3ccccc3o2)C(=O)Cc2ccc(OC)cc2)c2cc(OCCCO)ccc2N1C(=O)c1ccc(-c2ccccc2)cc1 (some centres not stated)"
  z-score: "0.0801 (inactive)"
- compound: "CCCc1cc2c(n1Cc1ccc(OC)cc1)C(C)C1CN(C(=O)c3ccccc3)C(C)(C(=O)OC)C21 (configuration not stated)"
  z-score: "0.461 (inactive)"
- compound: "C=CCNC(=O)[C@H]1[C@@H]2C(=O)O[C@@H](c3ccccc3)[C@@H](c3ccccc3)N2[C@@H](c2ccc(O)cc2)[C@]12C(=O)N(C(=O)OCCOC)c1ccc(C#CC3(O)CCCCCC3)cc12"
  z-score: "0.729 (inactive)"
- compound: "C=C[C@@H](O)[C@H]1CC(c2ccccc2)=NO1"
  z-score: "-0.347 (inactive)"
- compound: "Cc1ccc(S[C@]2(C(=O)O)CC(=O)N(Cc3ccccc3C(F)(F)F)[C@@H]2c2ccc(CO)cc2)cc1"
  z-score: "0.517 (inactive)"
- compound: "O=C1C2C=CC(C(O)c3ccc(Br)cc3)N(Nc3ccccc3)C2C(=O)N1c1ccccc1 (configuration not stated)"
  z-score: "0.379 (inactive)"

###

# measurementTarget: Torsin-1A-interacting protein 2 (Homo sapiens)
# protocolNotes: small molecules binding lysate-expressed LULL1 – cell lysate, human LULL1 lysate, 635/667 nm fluorescence, primary screen (AID 1092);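 note: probe is lysate of COS7 cells overexpressing human LULL1; score merges per-feature 667 nm fluorescence with signal-to-noise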
# conditionNotes: small-molecule microarray, hLULL1 lysate binding, 635 nm fluorescence; higher = more signal
Yes means recorded composite z-score is 0.5 or above; No means it is below 0.5.

- chemicalString: "[N-]=[N+]=NCc1ccccc1C[C@]1(C(=O)NCCN2CCOCC2)N=C(c2ccc(OCCCO)cc2)O[C@H]1c1ccccc1"
  categoryLabel: "Yes"
- chemicalString: "CCOC(=O)C[C@H]1[C@H](OC(=O)c2ccc(C(=O)c3ccccc3)cc2)[C@@H](NC(=O)C2CCCCC2)c2cc(OCCCO)ccc2N1C(=O)Cc1ccc(OC)cc1"
  categoryLabel: "Yes"
- chemicalString: "COC(=O)[C@]1(Cc2ccccc2CN=[N+]=[N-])N=C(c2ccc(OCCCO)cc2)O[C@@H]1c1ccccc1"
  categoryLabel: "No"
- chemicalString: "COC(=O)C(CC#Cc1ccc2c(c1)[C@]1(C(=O)N2)[C@H](c2ccc(O)cc2)N2[C@H](c3ccccc3)[C@H](c3ccccc3)OC(=O)[C@H]2[C@@H]1C(N)=O)C(=O)OC"
  categoryLabel: "No"
- chemicalString: "CC(C)NC(=O)[C@@H]1c2ccccc2C(=O)N(Cc2cc(C(F)(F)F)cc(C(F)(F)F)c2)[C@H]1c1ccc(CO)cc1"
  categoryLabel: "Yes"
- chemicalString: "COc1ccc([Si](C)(C)[C@@H]2[C@@H](CCO)O[C@]3(C(=O)N(Cc4ccc(N5C(=O)c6ccccc6Oc6ccccc65)cc4)c4ccccc43)[C@H]2C)cc1"
  categoryLabel: "No"

###

# protocolNotes: probe aWnt5a binding to arrayed compounds – biochemical, biotinylated probe, 635/667 nm fluorescence, primary screen (AID 1113);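 note: score merges 667 nm fluorescence intensity with signal-to-noise per printed feature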
# conditionNotes: small-molecule microarray, higher = more signal
Met means recorded composite z-score is 0.02 or above; Not met means it is below 0.02.

- compound: "O=C1C2C=CC(C(O)c3ccc(Br)cc3)N(Nc3ccccc3)C2C(=O)N1c1ccccc1 (stereo not given)"
  categoryLabel: "Not met"
- compound: "OCCCC1=CC(c2cccs2)N(Cc2cccc(OC(F)(F)F)c2)CC1 (stereo not given)"
  categoryLabel: "Not met"
- compound: "COC(=O)[C@@]1(Cc2ccc(F)cc2)[C@@H]2[C@@H](CC(=O)[C@H]2CC(=O)C(=O)N2CCCC2)CN1C(=O)c1ccccc1"
  categoryLabel: "Met"
- compound: "O=C1NC(=O)C2C1C=CC(C(O)CCc1ccccc1)N2Nc1ccccn1 (stereo not given)"
  categoryLabel: "Not met"
- compound: "CCOC(=O)C1=CC[C@@H](c2ccc(N(CC)CC)cc2)N(S(=O)(=O)c2ccc(C)cc2)[C@H]1c1ccc([N+](=O)[O-])cc1"
  categoryLabel: "Not met"
- compound: "C[N+](C)(C)CCCC[C@@H]1NC(=O)[C@@H]2C[C@H](C(=O)NCCCCCNC(=O)CS)[C@H](c3cccc(OCCO)c3)N2C1=O"
  categoryLabel: "Not met"
- compound: "CN1C(=O)C2C=CC(C(O)C3CCCCC3)N(N(c3ccccc3)c3ccccc3)C2C1=O (stereo not given)"
  categoryLabel: "Met"
- compound: "CCC[C@@H]1C[C@@]1(CCC)[C@@H](NC(=O)c1cccs1)c1ccc(Cl)cc1"
  categoryLabel: "Met"
- compound: "C=C(COC)C(=O)CC[C@H](OC(=O)c1ccccc1-c1ccccc1C(=O)O)c1ccc(OCCO)cc1"
  categoryLabel: "Not met"
- compound: "COc1ccc([Si](C)(C)[C@@H]2[C@@H](CCO)O[C@]3(C(=O)N(Cc4ccccc4)c4ccc(N5CCCCC5=O)cc43)[C@H]2C)cc1"
  categoryLabel: "Not met"
- compound: "COc1cc(C(O)C2C=CC3C(=O)N(C)C(=O)C3N2NC(=O)OC(C)(C)C)cc(OC)c1OC (stereo not given)"
  categoryLabel: "Met"
- compound: "COC(=O)C(CC#Cc1ccc2c(c1)[C@]1(C(=O)N2)[C@H](c2ccc(OCCO)cc2)N2[C@H](c3ccccc3)[C@H](c3ccccc3)OC(=O)[C@H]2[C@@H]1C(=O)O)C(=O)OC"
  categoryLabel: "Met"
- compound: "COC(=O)[C@@]1(Cc2ccc(F)cc2)[C@H]2c3cc(C(=O)N(C)C)n(Cc4ccc(C)c(F)c4F)c3C[C@H]2CN1C(=O)c1ccccc1"
  categoryLabel: "Not met"
- compound: "CN(C)CCCNC(=O)[C@@]1(Cc2ccccc2I)c2ccccc2C(=O)N(Cc2ccccc2Cl)[C@H]1c1ccc(CO)cc1"
  categoryLabel: "Met"
- compound: "COC(=O)[C@@]1(Cc2ccc(F)cc2)[C@H]2c3cc(C(=O)N4CCCC4)n(Cc4ccccc4)c3C[C@H]2CN1C(=O)c1ccccc1"
  categoryLabel: "Not met"

###

# measurementTarget: Neurogenic locus notch homolog protein 2 (Homo sapiens)
# protocolNotes: small molecules binding Notch2 protein – biochemical, small-molecule microarray, 635 nm fluorescence, stem cell growth factors, primary screen (AID 1073)
# conditionNotes: higher = more signal
t means recorded composite z-score is -0.2 or above; f means it is below -0.2.

- chemicalString: "NC(=O)NCC#Cc1ccc2c(c1)[C@]1(C(=O)N2)[C@H](c2ccc(O)cc2)N2[C@H](c3ccccc3)[C@H](c3ccccc3)OC(=O)[C@H]2[C@@H]1C(N)=O"
  categoryLabel: "f"
- chemicalString: "[N-]=[N+]=NCc1ccccc1[C@H]1OC(c2ccc(OCCCO)cc2)=N[C@@]1(Cc1ccccc1N=[N+]=[N-])C(=O)N1CCCCC1"
  categoryLabel: "t"
- chemicalString: "COc1ccccc1CN1C(=O)c2ccccc2[C@@]2(Cc3ccccc3N(C3CC3)C2=O)[C@@H]1c1ccc(CO)cc1"
  categoryLabel: "f"
- chemicalString: "COC(=O)[C@@]1(Cc2ccc(OC)cc2)[C@H]2c3cc(C(=O)N(C)C)n(CCF)c3C[C@H]2CN1C(=O)c1ccccc1"
  categoryLabel: "t"
- chemicalString: "COc1ccc([Si](C)(C)[C@H]2[C@H](CC(=O)N3CCC[C@H]3CO)O[C@@]3(C(=O)N(Cc4ccc(N5C(=O)c6cccc7cccc5c67)cc4)c4ccccc43)[C@@H]2C)cc1"
  categoryLabel: "t"
- chemicalString: "COc1cc2c(cc1OC)CN(C(=O)[C@@H]1[C@H]3C(=O)O[C@H](c4ccccc4)[C@H](c4ccccc4)N3[C@H](c3ccc(OCCO)cc3)[C@@]13C(=O)Nc1ccc(C#CCCO)cc13)CC2"
  categoryLabel: "t"
- chemicalString: "O=C(N1CCOCC1)[C@@]1(CCS(=O)(=O)c2ccccc2)COC(c2ccc(OCCCO)cc2)=N1"
  categoryLabel: "t"
